B1: ZNF263 (parent)
chain: FGGNPRFLSLHRAHLGEEAHKCLE

- Variants of: B1
- Assay Explanation: protein stability index of a GFP-peptide fusion (GPS, HEK-293T) (PSI 1-6); higher = more stable;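 also: lentivirally expressed fusions sorted by FACS into six bins by GFP to DsRed ratio, PSI derived from sequencing read proportions per bin multiplied by bin number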
- Condition Parameters: c terminus: a fixed tail appended
Provide the recorded protein stability index for the entries that follow.
// return just the number, without any unit appended

Exercise: Item `H14C` has what recorded protein stability index?
Solution: 1.95

Exercise: Try the variant `L10P`
Solution: 2.01

Exercise: Try the variant `L23I`
Solution: 2.02

Exercise: Try the variant `H11E`
Solution: 2.01

Exercise: Try the variant `H14G`
Solution: 1.95

Exercise: Try the variant `F7Y`
Solution: 2.04

Exercise: Try the variant `L10T`
Solution: 1.99

Exercise: Try the variant `R12T`
Solution: 1.95

Origin of the recorded values: the supplement of paper PMC10567573
